Test system: Brain
PROTOCOL SUMMARY: Drug uptake in Sprague-Dawley rat brain at 10 mg/kg, po
Type: ADME, organism-based
Parameters: dose 10 mg/kg, route oral
CONDITION LABEL: in vivo, read-out: Drug uptake
Entries and their measured concentration follow.
API: value field is a number in µM; no unit string.

Example results:
[
  {
    "COMPOUND": "O=C(O)c1cc(CN2CCc3ccccc3C2c2ccncc2)c2ccccn2c1=O (stereo not drawn)",
    "concentration [µM]": 1.34
  },
  {
    "COMPOUND": "O=C(O)c1cc(CN2CCc3cc(Cl)ccc3C2)c2ccccn2c1=O",
    "concentration [µM]": 3.69
  }
]

Now let's try a different one.
Inquiry: Give Brain concentration for `Cc1ccc(C2CCN(Cc3cc(C(=O)O)c(=O)n4ccccc34)CC2)cc1`
Reply text: 5.78
